# assay explanation: chemical genetic growth profiling, strain panel (AID 1159580);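 further: tested at 20 µM; growth read once vehicle control cultures reached saturation at 30 °C; 1 = growth at the plate median or of vehicle wells; lower values mean less growth of the strain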
# condition set: S. cerevisiae deletion strains, growth OD, locus YJL129C, strain trk1, active compounds read low
In all, about 5,500 compounds went through this assay and about 2,000 (36%) were called active. Inconclusive results (about 18%) are left out. Some of the results follow.
quantity name: normalized growth
Numbers only.

Some compounds with known normalized growth results, for comparison:
INSERT INTO results (compound, endpoint_value) VALUES
  ('CN1C(=O)CCS(=O)(=O)C1c1ccc(Cl)cc1 (stereo unspecified)', 0.994),
  ('Cc1ccc(N(CC2=NCCN2)c2cccc(O)c2)cc1', 1.02),
  ('Cc1cc(C(C)(C)C)c(O)c(C)c1CC1=NCCN1', 0.993),
  ('OC(c1cc(C(F)(F)F)nc2c(C(F)(F)F)cccc12)C1CCCCN1 (stereo unspecified)', 1.02),
  ('CC[C@H]1CN2CCc3cc(OC)c(OC)cc3C2C[C@@H]1CC1NCCc2cc(OC)c(OC)cc21 (stereo partly specified)', 0.983);

Alright, here's another compound for you.
Can you share its normalized growth? I mean this compound: `NCCc1c[nH]c2ccccc12` 0.963
